biological target: Na, K-ATPase (Ovis aries, UniProt P04074); construct: Na, K-ATPase will be purified from the outer medulla of frozen lamb kidney; from tissue; host or cells: outer medulla of frozen lamb kidney; experiment: NKA assay started by addition of KCl; format: biochemical, lamb; details: IC50_aver., assay started by addition of KCl; average
measuredEndpoint: pIC50
# pIC50: negative log10 of molar concentration; output just the value

Request: Look up pIC50: O=C1C=CC2C(=C1[N+](=O)[O-])Oc1c(ccc(O)c1[N+](=O)[O-])C2c1ccccc1C(=O)O (stereo not shown)
Result: 5.06

----------
target: Na, K-ATPase (Ovis aries, UniProt P04074); construct: Na, K-ATPase will be purified from the outer medulla of frozen lamb kidney; from tissue; host or cells: outer medulla of frozen lamb kidney; test: NKA assay started by addition of ATP; assay type: biochemical, lamb; settings: assay started by addition of ATP; determination 4; read-out: IC50_4
measuredEndpoint: pIC50
# pIC50: negative log10 of molar concentration; output just the value

Request: Look up pIC50: COc1cc2c(c(OC)c1)Sc1ccccc1C(=O)C2
Result: 3.84

Data provenance: patent US20060128699A1
